B1: CPEB3 Ribozyme (parent)
chain: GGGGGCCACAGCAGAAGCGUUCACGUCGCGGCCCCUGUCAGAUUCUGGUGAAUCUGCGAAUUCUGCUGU

# Variants of: B1
# Assay Remarks: self-cleavage, relative activity (ratio to wild type); higher = more cleavage; co-transcriptional
Endpoint Label: self-cleavage

Below are worked cases with known answers.
G1U : 0.11
C18A U20C : 0.158
U36G C45G : 0.251
U46C U67G : 0.977
U53A G68A : 1.03
C39U U62A : 0.702

Lookup: Annotate the variant A23U A52U with its measured self-cleavage.
Found: 0.996

Lookup: Annotate the variant C29G U55C with its measured self-cleavage.
Found: 0.253

Lookup: Annotate the variant U43C U46C with its measured self-cleavage.
Found: 0.939

Lookup: Annotate the variant A40G C63A with its measured self-cleavage.
Found: 0.689

Lookup: Annotate the variant C6U C7G with its measured self-cleavage.
Found: 0.198

Lookup: Annotate the variant C6G A52C with its measured self-cleavage.
Found: 0.264

Lookup: Annotate the variant G4A G30C with its measured self-cleavage.
Found: 0.188

Lookup: Annotate the variant C33U G41U with its measured self-cleavage.
Found: 0.821

Lookup: Annotate the variant G47C U67G with its measured self-cleavage.
Found: 1.06
